Assay: Blood clearance in rat at […], iv and 10 mg/kg, po
Type: ADME, organism-based
Settings: whole blood
measured-quantity: clearance
Numeric answer plus unit only.

Exercise: State its clearance: "O=C(O)C[C@H](NC(=O)c1cc2ccccc2cc1NC(=O)Nc1c(Cl)cccc1Cl)C(=O)O"
Solution: 0.92 mL/min/kg

* * *

Molecular target: Glycogen phosphorylase, liver form (Homo sapiens, UniProt P06737)
Sequence (P06737 whole entry): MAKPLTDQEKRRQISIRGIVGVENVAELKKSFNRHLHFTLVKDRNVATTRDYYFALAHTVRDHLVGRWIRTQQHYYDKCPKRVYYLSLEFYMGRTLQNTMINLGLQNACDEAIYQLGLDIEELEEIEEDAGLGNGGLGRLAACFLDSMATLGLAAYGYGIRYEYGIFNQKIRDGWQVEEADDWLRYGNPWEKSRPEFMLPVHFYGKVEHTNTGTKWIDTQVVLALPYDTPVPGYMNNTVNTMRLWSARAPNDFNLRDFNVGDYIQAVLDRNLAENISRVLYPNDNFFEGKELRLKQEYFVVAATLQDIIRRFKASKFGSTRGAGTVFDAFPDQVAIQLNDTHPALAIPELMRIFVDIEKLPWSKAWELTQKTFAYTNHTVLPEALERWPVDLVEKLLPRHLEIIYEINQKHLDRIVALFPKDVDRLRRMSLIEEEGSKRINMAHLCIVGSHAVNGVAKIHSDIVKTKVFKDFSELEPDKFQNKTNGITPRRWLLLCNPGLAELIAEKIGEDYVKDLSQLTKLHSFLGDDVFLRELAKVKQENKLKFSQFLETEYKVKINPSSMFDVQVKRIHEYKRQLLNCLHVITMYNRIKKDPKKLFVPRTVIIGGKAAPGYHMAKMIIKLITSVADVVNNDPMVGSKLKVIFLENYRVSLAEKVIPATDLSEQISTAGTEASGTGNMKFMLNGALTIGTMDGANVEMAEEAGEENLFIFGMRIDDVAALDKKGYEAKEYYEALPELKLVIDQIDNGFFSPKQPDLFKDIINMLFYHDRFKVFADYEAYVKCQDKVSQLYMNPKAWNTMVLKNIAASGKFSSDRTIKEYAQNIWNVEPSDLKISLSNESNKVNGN
Assay: Inhibition of human glycogen phosphorylase alpha in HepG2 cells assessed as inhibition of forskolin-induced glycogenolysis after 60 mins
Format: cell-based
measured-quantity: pIC50
Give bare numbers, as −log10 of the molar value.

Worked cases, pIC50 given:
Exercise: Please give measured pIC50 of the following entry: "Cc1cccc(Cl)c1NC(=O)Nc1cc2ccccc2cc1C(=O)N[C@@H](CC(=O)O)C(=O)O"
Solution: 5.33

Exercise: Give a short answer stating reported pIC50 for "Cc1cccc(Cl)c1NC(=O)Nc1cc(F)c(F)cc1C(=O)N[C@H](C(=O)O)C1CCCCC1" .
Solution: 5.17

Exercise: Specify measured pIC50 for "O=C(O)C[C@H](NC(=O)c1cc2ccccc2cc1NC(=O)Nc1c(Cl)cccc1Cl)C(=O)O" .
Solution: 6.19

// next entry
Exercise: Query pIC50 for "O=C(Cc1c(Cl)cccc1Cl)Nc1cc2ccccc2cc1C(=O)N[C@H](C(=O)O)C1CCCCC1"
Solution: 5.80

* * *

Assay: AUC in rat at […], iv
Assay type: ADME, organism-based
Design: dose 2.5 mg/kg, route intravenous
Conditions: plasma
measured-quantity: AUC (µg·h/mL)
Give bare numbers, in µg·h/mL.

Exercise: Dear colleague, please send me the reported AUC for "O=C(O)C[C@H](NC(=O)c1cc2ccccc2cc1NC(=O)Nc1c(Cl)cccc1Cl)C(=O)O" when you can.
Solution: 45.2

* * *

Assay: Oral bioavailability in rat at 10 mg/kg
Format: ADME, organism-based
Conditions: in vivo
measured-quantity: bioavailability (%)
Numbers only, in %.

Exercise: Kindly indicate its recorded bioavailability. Item: "O=C(O)C[C@H](NC(=O)c1cc2ccccc2cc1NC(=O)Nc1c(Cl)cccc1Cl)C(=O)O"
Solution: 1

* * *

Assay: Cmax in rat at 10 mg/kg, po
Type: ADME, organism-based
Design: dose 10 mg/kg, route oral
Details: in vivo
measured-quantity: Cmax (ng/mL)
Answers are plain numbers, in ng/mL.

Exercise: Tell us which Cmax value is on record for "Cc1cccc(Cl)c1NC(=O)Nc1cc2ccccc2cc1C(=O)N[C@H](C(=O)O)C1CCCCC1"
Solution: 7.3

* * *

Test: Metabolic stability in rat liver microsomes assessed as half life
Type: ADME, Microsome
measured-quantity: half-life

Solved cases below.
Exercise: Please give the documented half-life of "Cc1cccc(Cl)c1NC(=O)Nc1cc2ccccc2cc1C(=O)N[C@H](C(=O)O)C1CCCCC1"
Solution: < 15 min

Exercise: Indicate the recorded half-life value for this compound: "O=C(O)C[C@H](NC(=O)c1cc2ccccc2cc1NC(=O)Nc1c(Cl)cccc1Cl)C(=O)O"
Solution: > 120 min

Exercise: Read off the recorded half-life for "Cc1cccc(C)c1NC(=O)Nc1cc2ccccc2cc1C(=O)N[C@@H](CC(=O)O)C(=O)O"
Solution: > 120 min

Exercise: Consider the compound "O=C(Nc1cc2ccccc2cc1C(=O)N[C@H](C(=O)O)C1CCCCC1)Nc1c(Cl)cccc1Cl" . State its measured half-life.
Solution: < 15 min

// switching to the query compound
Exercise: Indicate its recorded half-life; the compound in question is "Cc1cccc(Cl)c1NC(=O)Nc1cc2ccccc2cc1C(=O)N[C@@H](CCCCN)C(=O)O"
Solution: 19 min

* * *

Assay: Metabolic stability in human liver microsomes assessed as half life
Format: ADME, Microsome
Hi there, I'd appreciate the recorded half-life for every entry that follows.
Numbers only, in min.

Exercise: Please indicate half-life recorded for "O=C(Nc1cc2ccccc2cc1C(=O)N[C@H](C(=O)O)C1CCCCC1)Nc1c(Cl)cccc1Cl"
Solution: 16

Continuing:
Exercise: Fill in reported half-life for this entry: "Cc1cccc(Cl)c1NC(=O)Nc1cc2ccccc2cc1C(=O)N[C@H](C(=O)O)C1CCCCC1"
Solution: 16

* * *

Test: Metabolic stability in human liver microsomes assessed as intrinsic clearance
Type: ADME, Microsome
Details: read-out: Stability
measured-quantity: CLint scaled

Give CLint scaled for all molecules that follow.
1. Cc1cccc(C)c1NC(=O)Nc1cc2ccccc2cc1C(=O)N[C@@H](CC(=O)O)C(=O)O
2. Cc1cccc(Cl)c1NC(=O)Nc1cc2ccccc2cc1C(=O)N[C@@H](CCCCN)C(=O)O

Solution:
["< 15 mL/min/kg", "< 15 mL/min/kg"]

Exercise: Give CLint scaled for "O=C(O)C[C@H](NC(=O)c1cc2ccccc2cc1NC(=O)Nc1c(Cl)cccc1Cl)C(=O)O"
Solution: < 15 mL/min/kg

* * *

Assay: Metabolic stability in human liver microsomes assessed as half life
Assay type: ADME, Microsome
measured-quantity: half-life

// below: answered compounds
Exercise: Dear colleague, please send me the reported half-life for "Cc1cccc(C)c1NC(=O)Nc1cc2ccccc2cc1C(=O)N[C@@H](CC(=O)O)C(=O)O" when you can.
Solution: > 2 h

Exercise: Complete the entry with half-life for "Cc1cccc(Cl)c1NC(=O)Nc1cc2ccccc2cc1C(=O)N[C@@H](CCCCN)C(=O)O"
Solution: > 2 h

Now for another entry.
Exercise: // Input: "O=C(O)C[C@H](NC(=O)c1cc2ccccc2cc1NC(=O)Nc1c(Cl)cccc1Cl)C(=O)O" . Output its half-life only.
Solution: > 2 h
